# System: DIV17
# Assay Info: qHTS profiling for inhibitors of Plasmodium falciparum proliferation (AID 504749); further: nearly all actives have a fitted effect of over 60% in size; further: potency means the concentration at half of the fitted maximal effect
# Test Context: P. falciparum in erythrocytes, SYBR Green DNA, 72 h; series mostly up to 28.7 µM
Results filed as inconclusive are left out. The source made the active and inactive calls. The call rests on the fitted dose curve; in most records, active means well fitted inhibition curve with a large enough effect; inconclusive means small, poorly fitted or top-dose-only effect; inactive means flat fitted curve, though single readings scatter.
Measure Name: Potency

O=C1c2c(O)ccc(O)c2C(=O)c2c(NCCNCCO)ccc(NCCNCCO)c21: 2.56 µM (active)
CC#C[C@]1(O)CC[C@H]2[C@@H]3CCC4=CC(=O)CCC4=C3[C@@H](c3ccc(N(C)C)cc3)C[C@@]21C: 8.49 µM (active)
Nc1nnc(-c2cccc(Cl)c2Cl)c(N)n1: inactive
O=C(c1ccc(OCCN2CCCCC2)cc1)c1c(-c2ccc(O)cc2)sc2cc(O)ccc12: 15.1 µM (active)
CCCCc1oc2ccccc2c1C(=O)c1cc(I)c(OCCN(CC)CC)c(I)c1: 13.5 µM (active)
Cc1cn([C@H]2C[C@H](N=[N+]=[N-])[C@@H](CO)O2)c(=O)[nH]c1=O: inactive
CC(C)(C)C(=O)Oc1ccc(S(=O)(=O)Nc2ccccc2C(=O)NCC(=O)O)cc1: inactive

###

# System: CP305
# Assay Info: qHTS profiling for inhibitors of Plasmodium falciparum proliferation (AID 504749); further: nearly all actives have a fitted effect of over 60% in size
# Test Context: P. falciparum in erythrocytes, SYBR Green DNA, 72 h; series mostly up to 28.7 µM
# Procedure: NIH National Institute of Allergy and Infectious Diseases [NIAID] NIH Chemical Genomics Center [NCGC] […] Because mature erythrocytes lack DNA, only Plasmodium-derived DNA is detected. NCGC Assay Protocol Summary: The SYBR Green viability assay was adapted from a method described previously (Plouffe et al., 2008). […] The following morning, fluorescence intensity at 485(14) nm excitation and 535(25) nm emission wavelengths was measured on an EnVision (Perkin Elmer) plate reader. […]
Records with an inconclusive call do not appear. The source made the active and inactive calls. Calls follow the shape of the dose curve; as a rule, active = well fitted inhibition curve with a large enough effect; inconclusive = small, poorly fitted or top-dose-only effect; inactive = flat fitted curve, though single readings scatter.
Outcomes: 1.0 for active, 0.0 for inactive

CNCCCC12CCC(c3ccccc31)c1ccccc12: 0.0
O=C1N(c2ccccc2)c2ccccc2C1(Cc1ccncc1)Cc1ccncc1: 0.0
OCCN1CCN(CCCN2c3ccccc3Sc3ccc(C(F)(F)F)cc32)CC1: 1.0
CC(C)(C)C(=O)Oc1ccc(S(=O)(=O)Nc2ccccc2C(=O)NCC(=O)O)cc1: 0.0
CN(C)c1nc(N(C)C)nc(N(C)C)n1: 0.0
Cn1cnc2c1c(=O)[nH]c(=O)n2C: 0.0
CCOC(=O)C(C)(C)Oc1ccc(Cl)cc1: 0.0
CC(C)Cc1ccc(C(C)C(=O)O)cc1 (stereo not drawn): 0.0
N[C@@H](Cc1c[nH]c2ccc(O)cc12)C(=O)O: 0.0
Cn1c(=O)c2[nH]cnc2n(C)c1=O: 0.0
NCCCCCC(=O)O: 0.0
CC(C)NCC(O)c1ccc(O)c(O)c1 (stereo not drawn): 0.0
CN(CCOc1ccc(NS(C)(=O)=O)cc1)CCc1ccc(NS(C)(=O)=O)cc1: 0.0

###

# Assay Info: qHTS Assay for Lipid Storage Modulators (AID 1519)
# Test Context: Drosophila S3 cells, BODIPY lipid droplet/cell ratio, laser cytometry; measured here: lipid channel max response; cells loaded with oleic acid
Inconclusive results are not listed.
Measure Name: max response (%)

CCOC(=O)Nc1ccc(NCc2ccc(F)cc2)nc1N: 49.4
NC(CO)C(=O)NNCc1ccc(O)c(O)c1O (stereo not drawn): 46.4
CC(C)NCC(O)COc1ccc(CCOCC2CC2)cc1 (stereo not drawn): -20.2
CCCCc1oc2ccccc2c1C(=O)c1cc(I)c(OCCN(CC)CC)c(I)c1: 1.02
Cc1cn([C@H]2C=C[C@@H](CO)O2)c(=O)[nH]c1=O: -8.91
C[C@](N)(Cc1ccc(O)c(O)c1)C(=O)O: 42
Nc1nnc(-c2cccc(Cl)c2Cl)c(N)n1: 20.6
COc1ccccc1OCCNCC(O)COc1cccc2[nH]c3ccccc3c12 (stereo not drawn): 13
